Tested on: CAKI-1 renal
protocolSummary: NCI-60 one-dose screen, 48 h (100 = growth as untreated, 0 = no growth, -100 = all killed)
reportedConditions: 10 µM
The panel holds about 83,000 compounds, 20% with a hit somewhere; the sample as a whole holds those more often. Activity calls are given as the source filed them. How the source made its calls: active means growth percent below 10; inactive means the rest.
Each entry below lists one item and its recorded growth value.

Consider the reported growth for these compounds:
>  <inputSmiles>
O=C(CS(=O)(=O)c1oc(-c2ccc(Cl)cc2)nc1S(=O)(=O)c1ccccc1)N1CCCC1

>  <observedValue>
-98.7% (active)

$$$$
>  <inputSmiles>
CC(=O)Nc1nc(-c2ccc(N3CCN(C)CC3)c(NS(=O)(=O)c3cccc4c(N(C)C)cccc34)c2)cs1

>  <observedValue>
66.5% (inactive)

$$$$

Proceeding to the next compound to report its growth.
May I ask what growth has been recorded for O=C(CSc1ccc(-c2ccc(Cl)cc2)nn1)Nc1ccc(Cl)c(C(F)(F)F)c1 ?
61.3% (inactive)

====

Tested on: UO-31 renal
protocolSummary: NCI-60 one-dose screen, 48 h
reportedConditions: 10 µM
The panel holds about 83,000 compounds, 20% with a hit somewhere; the sample as a whole holds those more often. Calls of active or inactive are those of the source. How the source made its calls: active means growth percent below 10; inactive means the rest.
Select the correct class. Options are active, inactive and nothing else.

These solved cases illustrate the format of a correct answer.
>  <compound>
O=C(NCCCCCCCCCC[P+](c1ccccc1)(c1ccccc1)c1ccccc1)c1ccc(-n2nc(-c3ccccc3O)nc2-c2ccccc2O)cc1

>  <classAssignment>
active

$$$$
>  <compound>
COc1ccc(C2NC(=S)NC(C)=C2C(=O)OC(C)C)cc1OC (centres undefined)

>  <classAssignment>
inactive

$$$$
>  <compound>
CC(=O)c1cc(C(=O)c2ccc3c(c2)NC(=O)CO3)n2ccc3ccccc3c12

>  <classAssignment>
inactive

$$$$
>  <compound>
N#C/C(=C\c1ccc(N(c2ccccc2)c2ccccc2)cc1)C(N)=O

>  <classAssignment>
inactive

$$$$
>  <compound>
Cc1cc(C(F)(F)F)ccc1C(=O)Nc1sc2c(c1C#N)CCC(=O)C2

>  <classAssignment>
active

$$$$
>  <compound>
C/C(=C\CC/C=C(\C)CC/C=C(\C)CC[C@@H](O)C(C)(C)O)CC/C=C(\C)CC[C@@H](O)C(C)(C)O

>  <classAssignment>
inactive

$$$$

Tell me the assay call for N#Cc1ccc(-c2nn(-c3ccc(C(=O)O)cc3)cc2CNc2cc(Cl)cc(C(F)(F)F)c2)cc1 please.
inactive

Record lookup: outcome of this test for COc1nccnc1NS(=O)(=O)c1ccc(NC2=C(Cl)C(=O)c3nc(C)ccc3C2=O)cc1 ?
inactive

Each compound tested received a call. Report the one for Nc1nnc(-c2c[nH]c3ccc(F)cc23)c(-c2c[nH]c3ncccc23)n1 .
inactive

Hi team, can someone confirm the assay call for COc1ccc(/C=C/C(=O)c2ccc(S(=O)(=O)NCCNc3nc(Nc4ccc(F)cc4)nc(N(C)C)n3)cc2)cc1 ?
inactive

What is the recorded call for this compound in the test? O=C(CNc1nc(-c2ccccc2)cs1)Nc1ccccc1
inactive

Would you mind telling me which call this test gave CC[C@@]1(O)C(=O)OCc2c1cc1n(c2=O)Cc2c-1nc1cc(F)c(C)c3c1c2[C@@H](N)CC3 ?
active

====

Reported growth by item:
System: MDA-MB-468 breast
protocolSummary: NCI-60 one-dose screen, 48 h (100 = growth as untreated, 0 = no growth, -100 = all killed)
reportedConditions: 10 µM
Compounds without any hit were thinned out: in the full panel of roughly 83,000, 20% have a hit.
Enter your answer as a number in %; do not include the unit.

Sample answers from the record:
>  <compound>
Cc1ccc(CSc2nc(Cl)c(C#N)c(-c3ccc(F)cc3)n2)cc1

>  <growth (%)>
80.3

$$$$
>  <compound>
CCC(C)S(=O)(=O)c1oc(-c2ccc(C)cc2)nc1S(=O)(=O)c1ccccc1 (configuration not stated)

>  <growth (%)>
-93.4

$$$$
>  <compound>
C#CCNC(=O)[C@]12CCC(C)(C)C[C@H]1C1=CC[C@@H]3[C@@](C)(CCC#N)[C@H](C(=C)C)CC[C@@]3(C)[C@]1(C)CC2

>  <growth (%)>
34.7

$$$$
>  <compound>
O=C(CNc1nc(-c2ccccc2)cs1)Nc1ccc(Cl)cc1[N+](=O)[O-]

>  <growth (%)>
-34.9

$$$$
>  <compound>
COc1ccsc1/C=N/NC(=O)c1[nH]c2ccc(Br)cc2c1-c1ccccc1

>  <growth (%)>
-6.2

$$$$

For COc1ccc(C(=O)Nc2sc3c(c2C#N)CCC(=O)C3)cc1C(F)(F)F , what is its reported growth?
-38.9

May I ask what growth has been recorded for O=C1CCC(N2Cc3c(C#CCCCNC(=O)c4ccc(NC(=O)[C@@H]5NC6(CCCCC6)[C@@]6(C(=O)Nc7cc(Cl)ccc76)[C@H]5c5cccc(Cl)c5F)cc4)cccc3C2=O)C(=O)N1 (some centres not stated) ?
39.3

====

Tested on: SK-MEL-2 melanoma
protocolSummary: NCI-60 one-dose screen, 48 h (100 = growth as untreated, 0 = no growth, -100 = all killed)
reportedConditions: 10 µM
Description: Growth inhibition of the SK-MEL-2 human tumor cell line is measured as a screen for anti-cancer activity. Cells are grown in 96 well plates and exposed to the test compound for 48 hours. Compounds are tested at a single concentration, which is 10^-5 M for most compounds. The reported endpoint is percent growth (GI% or GIPRCNT), where numbers from 0 - 100% represent growth inhibition, and numbers from -100% - 0 represent cell death. For example, a value of 40 represents 60% growth inhibition. […]
Compounds without any hit were thinned out: in the full panel of roughly 83,000, 20% have a hit.
Entries annotated with measured growth
Answer format: numeric, % implied, no suffix.

>  <inputSmiles>
Cc1cc(=O)oc2cc(OCCCCOc3ccc(/C=C/C(=O)Nc4ccc(F)c(Cl)c4)cc3)ccc12

>  <growth [%]>
117

$$$$

Fill in the recorded growth for this molecule, with SK-MEL-2 melanoma as test system: Cc1noc2c(Cc3ccc([N+](=O)[O-])cc3)nn(CC(=O)N/N=C/c3ccc(Cl)cc3)c(=O)c12
90.5

# query: growth | item Nc1n[nH]c2cccc(C#Cc3cccc(NC(=O)Nc4cc(C(F)(F)F)cc(C(F)(F)F)c4)c3)c12 | system: SK-MEL-2 melanoma
-96.8

====

System: 786-0 renal
protocolSummary: NCI-60 one-dose screen, 48 h
reportedConditions: 10 µM
Procedure: Cells are grown in 96 well plates and exposed to the test compound for 48 hours. Compounds are tested at a single concentration, which is 10^-5 M for most compounds. The reported endpoint is percent growth (GI% or GIPRCNT), where numbers from 0 - 100% represent growth inhibition, and numbers from -100% - 0 represent cell death. For example, a value of 40 represents 60% growth inhibition. A value of 0 means no net growth occurred over the course of the experiment. […]
This is part of a sample that, as a whole, favours compounds with a hit. Of some 83,000 tested, about 20% had one in any assay. Activity calls are given as the source filed them. The calls were made as follows: active = growth percent below 10; inactive = the rest.
// classify into 1 = active, 0 = inactive

>  <inputSmiles>
NS(=O)(=O)c1ccc(NC(=O)CSc2ccc(-c3ccccc3)nn2)c(Br)c1

>  <classAssignment>
0

$$$$
>  <inputSmiles>
Cc1noc2c(Cc3ccccc3)nn(CC(=O)N/N=C/c3ccc(Br)cc3)c(=O)c12

>  <classAssignment>
1

$$$$

API: the following record is the query input.
I'd appreciate the recorded outcome for O=c1oc2ccc(-c3ccc(F)cc3F)cc2c(=O)n1-c1ccc(Cl)c(C(F)(F)F)c1 from this test.
1

====

System: OVCAR-3 ovarian
protocolSummary: NCI-60 one-dose screen, 48 h (100 = growth as untreated, 0 = no growth, -100 = all killed)
reportedConditions: 10 µM
Compounds without any hit were thinned out: in the full panel of roughly 83,000, 20% have a hit.
Classification field: enter label 1 for growth values not below 20%, label 0 for values below it.

>  <molecule>
COc1ccc(/C=C/C(=O)c2ccc(S(=O)(=O)NCCNc3nc(Nc4ccc(F)cc4)nc(N(C)C)n3)cc2)cc1

>  <classAssignment>
label 0

$$$$
>  <molecule>
CCCCCc1ccc(S(=O)(=O)N(C(C)=O)c2cc(-c3csc(N(C)C(C)=O)n3)ccc2N2CCN(C)CC2)cc1

>  <classAssignment>
label 1

$$$$
>  <molecule>
O=c1cc(-c2ccccc2)oc2cc(OCCCNCc3ccccc3)cc(O)c12

>  <classAssignment>
label 0

$$$$
>  <molecule>
Cc1ccc(-c2ccc(SCC(=O)Nc3ccc(S(N)(=O)=O)cc3Br)nn2)cc1

>  <classAssignment>
label 0

$$$$
>  <molecule>
CN1C(=O)/C(=C/c2ccc3ncsc3c2)NC1=NC12CC3CC(CC(O)(C3)C1)C2

>  <classAssignment>
label 0

$$$$

Dear colleague, could you confirm whether O=C(c1ccc(Cl)cc1)C1[C@H](c2ccccc2Br)[C@@H](c2ccccc2)NC12C(=O)Nc1ccc(Cl)cc12 (stereo partly drawn) has growth at or above 20%?
label 0

Where these numbers come from: PubChem BioAssay (NCI)
